- SYSTEM NAME: T1, human GIP receptor (human, UniProt P48546 22-466)
- T1 construct: whole, on cells; also called hGIPR
- T1 sequence (looked up): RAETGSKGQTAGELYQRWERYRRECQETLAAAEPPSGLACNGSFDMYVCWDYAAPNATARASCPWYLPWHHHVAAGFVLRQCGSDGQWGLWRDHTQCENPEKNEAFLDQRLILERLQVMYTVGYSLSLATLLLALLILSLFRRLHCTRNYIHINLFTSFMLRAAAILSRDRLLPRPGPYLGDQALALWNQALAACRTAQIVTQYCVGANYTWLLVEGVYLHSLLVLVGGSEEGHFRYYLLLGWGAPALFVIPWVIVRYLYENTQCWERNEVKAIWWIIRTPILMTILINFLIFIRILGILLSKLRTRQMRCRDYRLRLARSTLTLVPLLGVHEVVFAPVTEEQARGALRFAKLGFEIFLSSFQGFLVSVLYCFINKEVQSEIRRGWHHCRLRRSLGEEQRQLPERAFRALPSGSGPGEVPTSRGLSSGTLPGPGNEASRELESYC
- ASSAY DETAILS: competition binding vs 125I-GIP(1-42), COS-7 cells transfected with human GIP receptor
- Method: Nonspecific binding was determined as the binding of radioligand to untransfected cells. All determinations were made in duplicates, and all experiments repeated at least three times. The samples were analyzed for radioactivity using a Wallac Wizard 1470 Gamma Counter (GMI Inc., Minnesota, USA). […] Statistical analyses (unpaired t-tests) of two parameters were also performed with GraphPad Prism 6.0. […] Kd is the dissociation constant determined by homologous receptor binding.
Ends that are not written are not given here.
logIC values by entry

Some solved entries appear below for comparison.
                                     binder  test_result
0  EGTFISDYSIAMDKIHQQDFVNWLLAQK-NH2 (also called human GIP(3-30)NH2; hGIP(3-30)NH2) [GIP(3-30)NH2]        -8.63
1  SDYSIAMDKIHQQDFVNWLLAQK-NH2 (also called human GIP(8-30)NH2; hGIP(8-30)) [GIP(8-30)NH2]         -7.1
2  DYSIAMDKIHQQDFVNWLLAQK-NH2 (also called human GIP(9-30)NH2; hGIP(9-30)) [GIP(9-30)NH2]        -6.51

# next binder below
Fill in the blank: the reported logIC of GTFISDYSIAMDKIHQQDFVNWLLAQK-NH2 (also called human GIP(4-30)NH2; hGIP4-30) [GIP(4-30)NH2] is ____.
-7.67
